# experiment: Total serum fatty acid concentrations in dolphins fed modified diet
# Assay type: in vivo, bottlenose dolphin (Tursiops truncatus)
# applied.conditions: bottlenose dolphin (Tursiops truncatus), serum, oral; Case dolphins fed modified diet (n = 20), Month 1, 2 h postprandial
property.measured: concentration at 1 month (µM)

smiles_representation=CCCCCCCCCCCCCCC(=O)O reported_measurement=94

A: CCCCCCCCCCCCCCCCC(=O)O
B: CCCCCCCCCCCCCC(=O)O
*Q* Smaller concentration at 1 month value, A vs B ? Kindly state the label of the option you pick.
*A* A
(A: 82 µM, B: 195 µM)

###

# experiment: Total serum fatty acid concentrations in dolphins fed modified diet
# Format: in vivo, bottlenose dolphin (Tursiops truncatus)
# applied.conditions: bottlenose dolphin (Tursiops truncatus), serum, oral; Case dolphins fed modified diet (n = 20), Month 6, 2 h postprandial
property.measured: concentration at 6 month (µM)

I: CCCCCCCCCCCCCCC(=O)O [C15:0, pentadecanoic acid]
II: CCCCCCCCCCCCCC(=O)O [C14:0, myristic acid]
*Q* Smaller concentration at 6 month value, I vs II ? Kindly state the label of the option you pick.
*A* I
